# ASSAY_TEXT: Cytotoxicity against human THLE3 cells assessed as reduction in cell viability after 48 hrs by alamar blue assay
# Assay type: toxicity, cell-based
// EC50 at 48 h lookup, one value per entry

For orientation, consider the following solved cases.
CS(=O)(=O)Nc1ccc(-c2nc3cc(NS(C)(=O)=O)ccc3o2)cc1 : > 100 µM
O=S(=O)(Nc1ccc(-c2nc3cc(NS(=O)(=O)C(F)(F)F)ccc3o2)cc1)C(F)(F)F : > 100 µM

Now for another entry.
QUERY: Request the reported EC50 at 48 h associated with O=c1ccc2cc(S(=O)(=O)Nc3ccc(-c4nc5cc(NS(=O)(=O)c6ccc7oc(=O)ccc7c6)ccc5o4)cc3)ccc2o1
RESULT: > 100 µM

Reference source: ChEMBL document CHEMBL3856280
